Molecular target: Progesterone receptor (Oryctolagus cuniculus) (UniProt P06186)
Sequence (P06186 whole entry): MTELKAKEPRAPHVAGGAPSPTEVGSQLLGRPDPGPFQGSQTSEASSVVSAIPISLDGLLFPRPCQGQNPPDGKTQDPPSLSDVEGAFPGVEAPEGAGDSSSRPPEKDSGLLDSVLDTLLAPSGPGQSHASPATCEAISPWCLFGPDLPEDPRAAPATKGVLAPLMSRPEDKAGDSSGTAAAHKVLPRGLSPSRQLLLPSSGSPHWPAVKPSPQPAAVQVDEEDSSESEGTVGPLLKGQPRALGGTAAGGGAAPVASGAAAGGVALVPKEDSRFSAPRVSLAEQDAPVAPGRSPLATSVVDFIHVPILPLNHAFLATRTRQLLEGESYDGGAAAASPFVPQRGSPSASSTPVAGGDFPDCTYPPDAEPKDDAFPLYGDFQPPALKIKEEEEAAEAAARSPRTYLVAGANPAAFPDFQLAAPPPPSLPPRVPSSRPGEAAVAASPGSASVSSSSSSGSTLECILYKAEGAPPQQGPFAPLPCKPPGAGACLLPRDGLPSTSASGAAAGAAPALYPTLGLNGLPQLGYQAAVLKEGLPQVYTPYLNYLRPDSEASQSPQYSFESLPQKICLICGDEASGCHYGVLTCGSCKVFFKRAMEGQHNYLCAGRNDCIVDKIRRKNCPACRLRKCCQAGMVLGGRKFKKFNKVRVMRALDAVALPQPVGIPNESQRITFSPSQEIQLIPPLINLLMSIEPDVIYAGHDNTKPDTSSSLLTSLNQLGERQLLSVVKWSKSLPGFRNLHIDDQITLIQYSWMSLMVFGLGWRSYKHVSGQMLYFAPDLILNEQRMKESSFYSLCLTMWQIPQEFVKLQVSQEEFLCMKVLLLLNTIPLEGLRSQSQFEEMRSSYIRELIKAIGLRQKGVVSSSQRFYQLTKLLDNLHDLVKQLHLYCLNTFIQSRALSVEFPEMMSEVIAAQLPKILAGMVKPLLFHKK
Experiment: Relative binding affinity to rabbit progesterone receptor
endpoint_name: log(RBA)

[[record]]
smiles_str = "CC(=O)[C@H]1CC[C@H]2[C@@H]3CCC4=CC(=O)CC[C@@H]4[C@H]3CC[C@]12C"
recorded_measurement = 2.41

[[record]]
smiles_str = "CCC(=O)[C@@]1(C)CC[C@H]2[C@@H]3CCC4=CC(=O)CCC4=C3CC[C@@]21C"
recorded_measurement = 2.48

[[record]]
smiles_str = "C#C[C@]1(O)CC[C@H]2[C@@H]3CCC4=CC(=O)CCC4=C3C=C[C@@]21CC"
recorded_measurement = 1.3

[[record]]
smiles_str = "CC(=O)O[C@]1(C(C)=O)CC[C@H]2[C@@H]3C[C@H](C)C4=CC(=O)CC[C@]4(C)[C@H]3CC[C@@]21C"
recorded_measurement = 2


---

Species: Cavia porcellus
Assay: Relative binding affinity to guinea pig progesterone receptor
Quick list: log(RBA) per entry.
endpoint_name: log(RBA)

[[record]]
smiles_str = "C#C[C@]1(O)CC[C@H]2[C@@H]3CC[C@H]4C[C@H](O)CC[C@@H]4[C@H]3CC[C@@]21C"
recorded_measurement = -2

[[record]]
smiles_str = "C#C[C@]1(O)CC[C@H]2[C@@H]3CCC4=CC(=O)CC[C@@H]4[C@H]3CC[C@@]21CC"
recorded_measurement = 1.43

[[record]]
smiles_str = "C#C[C@]1(O)CC[C@H]2[C@@H]3CCC4=C[C@@H](O)CC[C@@H]4[C@H]3CC[C@@]21C"
recorded_measurement = -0.22

[[record]]
smiles_str = "C[C@]12CCC(=O)C=C1CC[C@@H]1[C@@H]2[C@@H](O)C[C@@]2(C)[C@H]1CC[C@]2(O)C(=O)CO"
recorded_measurement = -1

[[record]]
smiles_str = "CC(=O)O[C@]1(C(C)=O)CC[C@H]2[C@@H]3C[C@H](C)C4=CC(=O)CC[C@]4(C)[C@H]3CC[C@@]21C"
recorded_measurement = 1.11

[[record]]
smiles_str = "CC(=O)O[C@]1(C(C)=O)CC[C@H]2[C@@H]3CCC4=C(O)C(=O)CC[C@]4(C)[C@H]3CC[C@@]21C"
recorded_measurement = -0.4

[[record]]
smiles_str = "CC[C@@H]1C[C@H]2[C@@H]3CCC4=CC(=O)CC[C@@H]4[C@H]3CC[C@]2(C)[C@H]1C(=O)CO"
recorded_measurement = 1.4

[[record]]
smiles_str = "C#C[C@]1(O)CC[C@H]2[C@@H]3CC[C@H]4CC(=O)CC[C@@H]4[C@H]3CC[C@@]21C"
recorded_measurement = 0.3

[[record]]
smiles_str = "C#C[C@]1(O)CC[C@H]2[C@@H]3[C@H](C)CC4=C(CCC(=O)C4)[C@H]3CC[C@@]21C"
recorded_measurement = -0.4

[[record]]
smiles_str = "C#C[C@]1(O)CC[C@H]2[C@@H]3CC=C4CCCC[C@@H]4[C@H]3CC[C@@]21C"
recorded_measurement = -1.15

[[record]]
smiles_str = "CC(=O)[C@H]1CC[C@H]2[C@@H]3CC=C4C[C@@H](O)CC[C@]4(C)[C@H]3CC[C@]12C"
recorded_measurement = -0.52

[[record]]
smiles_str = "C#C[C@]1(O)CC[C@H]2[C@@H]3CCC4=CC(=O)CC[C@@H]4[C@H]3[C@@H](Cl)C[C@@]21C"
recorded_measurement = 1.48

[[record]]
smiles_str = "CC(=O)OCC(=O)[C@H]1CC[C@H]2[C@@H]3CCC4=CC(=O)CC[C@]4(C)[C@H]3CC[C@]12C"
recorded_measurement = 1.34

[[record]]
smiles_str = "C#C[C@]1(OC(C)=O)CC[C@H]2[C@@H]3CCC4=CC(=O)CC[C@@H]4[C@H]3CC[C@@]21C"
recorded_measurement = 0.78

[[record]]
smiles_str = "C#C[C@]1(O)CC[C@H]2[C@@H]3CCC4=C(CCC(=O)C4)[C@H]3CC[C@@]21C"
recorded_measurement = 3

[[record]]
smiles_str = "CC(=O)[C@@]12O[C@@H]1C[C@H]1[C@@H]3CCC4=CC(=O)CC[C@]4(C)[C@H]3CC[C@@]12C"
recorded_measurement = -0.046

[[record]]
smiles_str = "CC[C@@H]1C[C@H]2[C@@H]3CCC4=CC(=O)CC[C@]4(C)[C@H]3CC[C@]2(C)[C@H]1C(C)=O"
recorded_measurement = 1.08


---

Molecular target: Progesterone receptor (Homo sapiens)
Sequence (whole entry): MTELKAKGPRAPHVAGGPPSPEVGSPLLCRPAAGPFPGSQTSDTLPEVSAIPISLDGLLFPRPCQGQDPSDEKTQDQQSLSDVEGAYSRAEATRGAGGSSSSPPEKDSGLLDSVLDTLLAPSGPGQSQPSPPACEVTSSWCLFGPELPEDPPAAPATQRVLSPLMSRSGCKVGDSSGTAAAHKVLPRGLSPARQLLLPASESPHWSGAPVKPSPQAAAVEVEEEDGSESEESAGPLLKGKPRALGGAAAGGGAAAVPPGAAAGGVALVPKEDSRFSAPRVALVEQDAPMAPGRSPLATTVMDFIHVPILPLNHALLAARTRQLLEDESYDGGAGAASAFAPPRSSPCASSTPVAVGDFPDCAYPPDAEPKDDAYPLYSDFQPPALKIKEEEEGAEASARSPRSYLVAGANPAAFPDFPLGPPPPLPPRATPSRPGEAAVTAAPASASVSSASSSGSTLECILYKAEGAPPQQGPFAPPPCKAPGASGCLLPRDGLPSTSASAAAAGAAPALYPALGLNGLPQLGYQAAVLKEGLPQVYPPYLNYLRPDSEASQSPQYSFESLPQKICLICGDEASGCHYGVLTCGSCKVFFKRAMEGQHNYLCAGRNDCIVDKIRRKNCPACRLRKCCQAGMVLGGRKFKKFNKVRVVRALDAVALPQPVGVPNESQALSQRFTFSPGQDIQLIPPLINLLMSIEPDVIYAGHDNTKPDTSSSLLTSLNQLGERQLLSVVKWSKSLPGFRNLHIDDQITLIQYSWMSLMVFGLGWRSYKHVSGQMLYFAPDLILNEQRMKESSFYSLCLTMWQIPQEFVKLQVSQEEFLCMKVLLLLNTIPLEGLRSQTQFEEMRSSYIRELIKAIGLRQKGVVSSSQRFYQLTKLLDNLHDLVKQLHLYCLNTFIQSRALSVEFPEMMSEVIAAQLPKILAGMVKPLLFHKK
Parameter threshold = 1. Response is Met when log(RBA) meets or exceeds it, else Not met.

[[record]]
smiles_str = "CC(=O)[C@H]1CC[C@H]2[C@@H]3CC[C@@H]4CC(=O)CC[C@]4(C)[C@H]3CC[C@]12C"
group = "Met"

[[record]]
smiles_str = "C[C@@H](O)[C@H]1CC[C@H]2[C@@H]3CCC4=CC(=O)CC[C@]4(C)[C@H]3CC[C@]12C"
group = "Not met"

[[record]]
smiles_str = "C[C@]12CC[C@H]3[C@@H](CCC4=CC(=O)CC[C@@H]43)[C@@H]1CC[C@@H]2O"
group = "Met"

[[record]]
smiles_str = "CC(=O)[C@H]1CC[C@H]2[C@@H]3[C@H](C)CC4=CC(=O)CC[C@]4(C)[C@H]3CC[C@]12C"
group = "Met"

[[record]]
smiles_str = "C#C[C@]1(O)CC[C@H]2[C@@H]3CC[C@H]4C[C@@H](O)CC[C@@H]4[C@H]3CC[C@@]21C"
group = "Not met"

[[record]]
smiles_str = "C[C@]12CCC(=O)C=C1CC[C@@H]1[C@@H]2[C@@H](O)C[C@@]2(C)[C@H]1CC[C@]2(O)C(=O)CO"
group = "Not met"

[[record]]
smiles_str = "C#C[C@]1(O)CC[C@H]2[C@@H]3CCC4=C(CCC(=O)C4)[C@H]3CC[C@@]21C"
group = "Met"

[[record]]
smiles_str = "CC(=O)[C@H]1CC[C@H]2[C@@H]3CCC4=CC(=O)CC[C@]4(C)[C@H]3CC[C@]12C"
group = "Met"


---

Listed here are molecules together with their documented log(RBA).
Biological target: Progesterone receptor (Homo sapiens)
Sequence (whole entry): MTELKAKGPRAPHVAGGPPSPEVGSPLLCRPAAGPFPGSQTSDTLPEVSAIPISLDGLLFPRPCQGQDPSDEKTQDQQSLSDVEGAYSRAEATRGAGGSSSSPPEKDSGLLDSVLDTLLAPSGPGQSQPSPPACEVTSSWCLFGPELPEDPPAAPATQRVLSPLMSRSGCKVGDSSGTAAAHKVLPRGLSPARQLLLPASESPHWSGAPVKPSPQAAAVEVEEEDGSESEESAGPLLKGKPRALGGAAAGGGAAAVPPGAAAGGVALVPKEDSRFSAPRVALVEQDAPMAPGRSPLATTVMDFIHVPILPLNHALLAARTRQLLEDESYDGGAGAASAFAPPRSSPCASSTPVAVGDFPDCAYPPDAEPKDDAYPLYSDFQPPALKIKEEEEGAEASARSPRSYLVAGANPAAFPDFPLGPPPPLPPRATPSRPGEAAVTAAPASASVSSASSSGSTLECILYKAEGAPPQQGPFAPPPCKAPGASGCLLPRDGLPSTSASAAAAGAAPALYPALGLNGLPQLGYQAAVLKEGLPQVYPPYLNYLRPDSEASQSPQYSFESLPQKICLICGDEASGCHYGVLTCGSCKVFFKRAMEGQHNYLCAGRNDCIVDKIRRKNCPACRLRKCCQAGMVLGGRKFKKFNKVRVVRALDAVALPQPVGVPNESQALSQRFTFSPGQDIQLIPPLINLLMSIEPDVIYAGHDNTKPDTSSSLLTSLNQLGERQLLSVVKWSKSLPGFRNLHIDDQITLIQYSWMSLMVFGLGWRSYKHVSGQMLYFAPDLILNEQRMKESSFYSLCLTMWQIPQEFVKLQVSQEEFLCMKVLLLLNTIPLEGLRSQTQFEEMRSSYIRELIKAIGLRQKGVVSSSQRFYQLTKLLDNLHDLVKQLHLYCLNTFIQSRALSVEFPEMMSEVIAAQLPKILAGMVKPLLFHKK
endpoint_name: log(RBA)

[[record]]
smiles_str = "CC(=O)O[C@]1(C(C)=O)CC[C@H]2[C@@H]3CCC4=C(O)C(=O)CC[C@]4(C)[C@H]3CC[C@@]21C"
recorded_measurement = 1.62

[[record]]
smiles_str = "CC[C@@H]1C[C@H]2[C@@H]3C=CC4=CC(=O)CC[C@@H]4[C@H]3CC[C@]2(C)[C@H]1C(=O)CF"
recorded_measurement = 2.15

[[record]]
smiles_str = "C[C@]12CCC(=O)C=C1CC[C@@H]1[C@@H]2CC[C@]2(C)C(=O)CC[C@@H]12"
recorded_measurement = -1

[[record]]
smiles_str = "CC(=O)[C@H]1CC[C@H]2[C@@H]3CCC4=CC(=O)CC[C@]4(C)[C@H]3C(=O)C[C@]12C"
recorded_measurement = 0

[[record]]
smiles_str = "C#C[C@]1(OC(C)=O)CC[C@H]2[C@@H]3CCC4=CCCC[C@@H]4[C@H]3CC[C@@]21C"
recorded_measurement = -0.7

[[record]]
smiles_str = "CC(=O)[C@@]12O[C@@H]1C[C@H]1[C@@H]3CCC4=CC(=O)CC[C@]4(C)[C@H]3CC[C@@]12C"
recorded_measurement = 0

[[record]]
smiles_str = "CC(=O)OCC(=O)[C@H]1CC[C@H]2[C@@H]3CCC4=CC(=O)CC[C@]4(C)[C@H]3CC[C@]12C"
recorded_measurement = 1

[[record]]
smiles_str = "C[C@]12CC[C@H]3[C@@H](CCC4=CC(=O)CC[C@@]43C)[C@@H]1CC[C@@H]2C(=O)CO"
recorded_measurement = 1.23


These data points were gathered from ChEMBL document CHEMBL3272135.
